Test: Solubility of clozapine in organic acid and Vitamin E-TPGS + organic acid combination
Details: Ascorbic acid 1% w/v, aqueous buffer
quantity name: solubility (µg/mL)
Give a bare numeral; the unit µg/mL is implied.

solubility in this record for `CN1CCN(C2=Nc3cc(Cl)ccc3Nc3ccccc32)CC1` : 259

----------
Details: Cremphor A25 1% w/v surfactant solution, aqueous with cosolvent or surfactant or cyclodextrin
quantity name: solubility
State the result as a value with its unit after it.

solubility in this record for `CN1CCN(C2=Nc3cc(Cl)ccc3Nc3ccccc32)CC1` : 506 µg/mL

----------
Details: Cremphor RH 40 1% w/v surfactant solution, aqueous with cosolvent or surfactant or cyclodextrin
quantity name: solubility (µg/mL)
Give a bare numeral; the unit µg/mL is implied.

solubility in this record for `CN1CCN(C2=Nc3cc(Cl)ccc3Nc3ccccc32)CC1` : 115

----------
Test: Solubility of clozapine in organic acid and Vitamin E-TPGS + organic acid combination
Conditions: Fumaric acid (0.01M), aqueous buffer
quantity name: solubility (µg/mL)
Give a bare numeral; the unit µg/mL is implied.

solubility in this record for CN1CCN(C2=Nc3cc(Cl)ccc3Nc3ccccc32)CC1 [Clozapine, clozapine] : 8880

----------
Assay: Solubility of clozapine in solvent
Format: physicochemical
Conditions: N-methyl-2-pyrrolidinone (NMP), organic solvent or mixture
quantity name: solubility

solubility in this record for `CN1CCN(C2=Nc3cc(Cl)ccc3Nc3ccccc32)CC1` : > 300 mg/mL

----------
Settings: Brij 700 1% w/v surfactant solution, aqueous with cosolvent or surfactant or cyclodextrin
quantity name: solubility (µg/mL)
Give a bare numeral; the unit µg/mL is implied.

solubility in this record for `CN1CCN(C2=Nc3cc(Cl)ccc3Nc3ccccc32)CC1` : 336

----------
Conditions: Span 20 1% w/v surfactant solution, aqueous with cosolvent or surfactant or cyclodextrin
quantity name: solubility
State the result as a value with its unit after it.

solubility in this record for `CN1CCN(C2=Nc3cc(Cl)ccc3Nc3ccccc32)CC1` : 0.0161 mg/mL

----------
Settings: Sodium Dodecylate Sulfate (SDS) 1% w/v surfactant solution, aqueous with cosolvent or surfactant or cyclodextrin
quantity name: solubility (µg/mL)
Give a bare numeral; the unit µg/mL is implied.

solubility in this record for CN1CCN(C2=Nc3cc(Cl)ccc3Nc3ccccc32)CC1 [Clozapine, clozapine] : 1140

----------
Test: Solubility of clozapine in organic acid and Vitamin E-TPGS + organic acid combination
Details: Citric acid (0.1M), aqueous buffer
quantity name: solubility (mg/mL)
Give a bare numeral; the unit mg/mL is implied.

solubility in this record for CN1CCN(C2=Nc3cc(Cl)ccc3Nc3ccccc32)CC1 [Clozapine, clozapine] : 35.4

----------
Assay: Solubility of clozapine in different pH medium
Assay type: physicochemical
Conditions: DI water, water
quantity name: solubility (µg/mL)
Give a bare numeral; the unit µg/mL is implied.

solubility in this record for `CN1CCN(C2=Nc3cc(Cl)ccc3Nc3ccccc32)CC1` : 11.8

----------
Conditions: PEG 400 1% w/v surfactant solution
quantity name: solubility (µg/mL)
Give a bare numeral; the unit µg/mL is implied.

solubility in this record for `CN1CCN(C2=Nc3cc(Cl)ccc3Nc3ccccc32)CC1` : 30.9

----------
Conditions: Labrasol 1% w/v surfactant solution, aqueous with cosolvent or surfactant or cyclodextrin
quantity name: solubility (µg/mL)
Give a bare numeral; the unit µg/mL is implied.

solubility in this record for `CN1CCN(C2=Nc3cc(Cl)ccc3Nc3ccccc32)CC1` : 70.6

----------
Details: PEG-diolaurate 1% w/v surfactant solution, aqueous with cosolvent or surfactant or cyclodextrin
quantity name: solubility (µg/mL)
Give a bare numeral; the unit µg/mL is implied.

solubility in this record for `CN1CCN(C2=Nc3cc(Cl)ccc3Nc3ccccc32)CC1` : 104

----------
Assay: Solubility of clozapine in different pH medium
Assay type: physicochemical
Settings: pH 1.5 medium, pH 1.5, simulated gastric fluid
quantity name: solubility (µg/mL)
Give a bare numeral; the unit µg/mL is implied.

solubility in this record for `CN1CCN(C2=Nc3cc(Cl)ccc3Nc3ccccc32)CC1` : 712

----------
Experiment: Solubility of clozapine in solvent
Format: physicochemical
Settings: 2-pyrrolidinone (Soluphor-P), organic solvent or mixture
quantity name: solubility

solubility in this record for `CN1CCN(C2=Nc3cc(Cl)ccc3Nc3ccccc32)CC1` : > 250 mg/mL

----------
Conditions: Lutrol F-68 1% w/v surfactant solution, aqueous with cosolvent or surfactant or cyclodextrin
quantity name: solubility (µg/mL)
Give a bare numeral; the unit µg/mL is implied.

solubility in this record for `CN1CCN(C2=Nc3cc(Cl)ccc3Nc3ccccc32)CC1` : 15.3

----------
Test: Solubility of clozapine in organic acid and Vitamin E-TPGS + organic acid combination
Details: Alginic acid 1% w/v, aqueous buffer
quantity name: solubility (µg/mL)
Give a bare numeral; the unit µg/mL is implied.

solubility in this record for `CN1CCN(C2=Nc3cc(Cl)ccc3Nc3ccccc32)CC1` : 9.99

----------
Conditions: Solutol HS15 1% w/v surfactant solution, aqueous with cosolvent or surfactant or cyclodextrin
quantity name: solubility
State the result as a value with its unit after it.

solubility in this record for CN1CCN(C2=Nc3cc(Cl)ccc3Nc3ccccc32)CC1 [Clozapine, clozapine] : 344 µg/mL

----------
Details: Cremphor A-6 1% w/v surfactant solution, aqueous with cosolvent or surfactant or cyclodextrin
quantity name: solubility (µg/mL)
Give a bare numeral; the unit µg/mL is implied.

solubility in this record for `CN1CCN(C2=Nc3cc(Cl)ccc3Nc3ccccc32)CC1` : 11.5

----------
Conditions: Tween 80 1% w/v surfactant solution, aqueous with cosolvent or surfactant or cyclodextrin
quantity name: solubility (µg/mL)
Give a bare numeral; the unit µg/mL is implied.

solubility in this record for `CN1CCN(C2=Nc3cc(Cl)ccc3Nc3ccccc32)CC1` : 399

Values compiled from patent US20070104778A1.
